- target.or.system: Dihydrofolate reductase (Bos taurus)
- experimental.details: Percent inhibition was measured against Dihydrofolate reductase (bovine liver) enzyme at 10E-4 M inhibitory concentration
reported.property: inhibition (%)

Some solved entries appear below for comparison.
Req: Lab note: need inhibition with Dihydrofolate reductase (Bos taurus) for entry N=C1N(c2ccc(C(=O)NC(CCC(=O)O)C(=O)O)cc2)CC2CNc3nc(N)[nH]c(=O)c3N12 (stereo not given) , please look it up.
Resp: 0

Req: Do the same for Nc1nc2c(c(=O)[nH]1)N1CCN(c3ccc(C(=O)NC(CCC(=O)O)C(=O)O)cc3)CC1CN2 (stereo not given) please
Resp: 13

Req: Do the same for Nc1nc2c(c(=O)[nH]1)N1C=[N+](c3ccc(C(=O)NC(CCC(=O)O)C(=O)O)cc3)CC1CN2 (stereo not given) please
Resp: 15

a. Nc1nc2c(c(=O)[nH]1)N1C(=O)N(c3ccc(C(=O)NC(CCC(=O)O)C(=O)O)cc3)CC1CN2 (stereo not given)
b. Nc1nc2c(c(=O)[nH]1)N1C(=S)N(c3ccc(C(=O)NC(CCC(=O)O)C(=O)O)cc3)CC1CN2 (stereo not given)
Req: Which value of inhibition is greater, the one for a or the one for b ? Field: selected label. Fill in the label of the entry you choose.
Resp: b
(b: 30%, a: 16%)

---

- System: Thymidylate synthase
- experimental.details: Percent inhibition was measured against Thymidylate synthase (calf thymus) enzyme at 10E-4 M inhibitory concentration
reported.property: inhibition (%)

Some solved entries appear below for comparison.
Req: Fill in: inhibition of Nc1nc2c(c(=O)[nH]1)N1CCN(c3ccc(C(=O)NC(CCC(=O)O)C(=O)O)cc3)CC1CN2 (centres undefined) is ___
Resp: 16

Req: Do the same for Nc1nc2c(c(=O)[nH]1)N1C(=S)N(c3ccc(C(=O)NC(CCC(=O)O)C(=O)O)cc3)CC1CN2 (centres undefined) please
Resp: 8

1. Nc1nc2c(c(=O)[nH]1)N1C(=O)N(c3ccc(C(=O)NC(CCC(=O)O)C(=O)O)cc3)CC1CN2 (centres undefined)
2. N=C1N(c2ccc(C(=O)NC(CCC(=O)O)C(=O)O)cc2)CC2CNc3nc(N)[nH]c(=O)c3N12 (centres undefined)
Req: Which value of inhibition is greater, the one for 1 or the one for 2 ? Field: selected label. Fill in the label of the entry you choose.
Resp: 1

---

- System: Columba livia
- experimental.details: Percent inhibition was measured against glycinamide ribotide transformylase (pigeon liver) enzyme at 10E-4 M inhibitory concentration
reported.property: inhibition (%)

Some solved entries appear below for comparison.
Req: Fill in: inhibition of Nc1nc2c(c(=O)[nH]1)N1CCN(c3ccc(C(=O)NC(CCC(=O)O)C(=O)O)cc3)CC1CN2 (centres undefined) is ___
Resp: 0

Req: Do the same for N=C1N(c2ccc(C(=O)NC(CCC(=O)O)C(=O)O)cc2)CC2CNc3nc(N)[nH]c(=O)c3N12 (centres undefined) please
Resp: 0

I. Nc1nc2c(c(=O)[nH]1)N1C(=S)N(c3ccc(C(=O)NC(CCC(=O)O)C(=O)O)cc3)CC1CN2 (centres undefined)
II. Nc1nc2c(c(=O)[nH]1)N1C(=O)N(c3ccc(C(=O)NC(CCC(=O)O)C(=O)O)cc3)CC1CN2 (centres undefined)
Req: Smaller inhibition value? Options are I and II Field: selected label. Fill in the label of the entry you choose.
Resp: II
(II: 0%, I: 11%)

---

- Species: Sus scrofa
- experimental.details: Percent inhibition was measured against methionine synthetase (porcine kidney)enzyme at 10E-4 M inhibitory concentration
reported.property: inhibition (%)

Req: Fill in: inhibition of Nc1nc2c(c(=O)[nH]1)N1C(=S)N(c3ccc(C(=O)NC(CCC(=O)O)C(=O)O)cc3)CC1CN2 (centres undefined) is ___
Resp: 5

a. N=C1N(c2ccc(C(=O)NC(CCC(=O)O)C(=O)O)cc2)CC2CNc3nc(N)[nH]c(=O)c3N12 (centres undefined)
b. Nc1nc2c(c(=O)[nH]1)N1CCN(c3ccc(C(=O)NC(CCC(=O)O)C(=O)O)cc3)CC1CN2 (centres undefined)
c. Nc1nc2c(c(=O)[nH]1)N1C(=O)N(c3ccc(C(=O)NC(CCC(=O)O)C(=O)O)cc3)CC1CN2 (centres undefined)
Req: List the 3 entries from lowest inhibition to highest inhibition value. List the labels, following the order given in the request.
Resp: c, a, b

---

- Species: Sus scrofa
- experimental.details: Percent inhibition was measured against 5,10-Methylene Tetrahydrofolate Reductase (porcine kidney) enzyme at 10E-4 M inhibitory concentration
reported.property: inhibition (%)

Req: Fill in: inhibition of Nc1nc2c(c(=O)[nH]1)N1CCN(c3ccc(C(=O)NC(CCC(=O)O)C(=O)O)cc3)CC1CN2 (centres undefined) is ___
Resp: 20

Req: Do the same for Nc1nc2c(c(=O)[nH]1)N1C(=O)N(c3ccc(C(=O)NC(CCC(=O)O)C(=O)O)cc3)CC1CN2 (centres undefined) please
Resp: 41

A. Nc1nc2c(c(=O)[nH]1)N1C(=S)N(c3ccc(C(=O)NC(CCC(=O)O)C(=O)O)cc3)CC1CN2 (centres undefined)
B. N=C1N(c2ccc(C(=O)NC(CCC(=O)O)C(=O)O)cc2)CC2CNc3nc(N)[nH]c(=O)c3N12 (centres undefined)
Req: Smaller inhibition value? Options are A and B Field: selected label. Fill in the label of the entry you choose.
Resp: B

---

- Species: Sus scrofa
- experimental.details: Percent inhibition was measured against Serine transhydroxymethylase (porcine liver) enzyme. at 10E-4 M inhibitory concentration
reported.property: inhibition (%)

Some solved entries appear below for comparison.
Req: Fill in: inhibition of Nc1nc2c(c(=O)[nH]1)N1C=[N+](c3ccc(C(=O)NC(CCC(=O)O)C(=O)O)cc3)CC1CN2 (centres undefined) is ___
Resp: 10

Req: Do the same for Nc1nc2c(c(=O)[nH]1)N1CCN(c3ccc(C(=O)NC(CCC(=O)O)C(=O)O)cc3)CC1CN2 (centres undefined) please
Resp: 10

a. Nc1nc2c(c(=O)[nH]1)N1C(=S)N(c3ccc(C(=O)NC(CCC(=O)O)C(=O)O)cc3)CC1CN2 (centres undefined)
b. N=C1N(c2ccc(C(=O)NC(CCC(=O)O)C(=O)O)cc2)CC2CNc3nc(N)[nH]c(=O)c3N12 (centres undefined)
Req: Smaller inhibition value? Options are a and b Field: selected label. Fill in the label of the entry you choose.
Resp: a
(a: 0%, b: 30%)
